Study Target: UniProt:P30305
Sequence (P30305 whole entry): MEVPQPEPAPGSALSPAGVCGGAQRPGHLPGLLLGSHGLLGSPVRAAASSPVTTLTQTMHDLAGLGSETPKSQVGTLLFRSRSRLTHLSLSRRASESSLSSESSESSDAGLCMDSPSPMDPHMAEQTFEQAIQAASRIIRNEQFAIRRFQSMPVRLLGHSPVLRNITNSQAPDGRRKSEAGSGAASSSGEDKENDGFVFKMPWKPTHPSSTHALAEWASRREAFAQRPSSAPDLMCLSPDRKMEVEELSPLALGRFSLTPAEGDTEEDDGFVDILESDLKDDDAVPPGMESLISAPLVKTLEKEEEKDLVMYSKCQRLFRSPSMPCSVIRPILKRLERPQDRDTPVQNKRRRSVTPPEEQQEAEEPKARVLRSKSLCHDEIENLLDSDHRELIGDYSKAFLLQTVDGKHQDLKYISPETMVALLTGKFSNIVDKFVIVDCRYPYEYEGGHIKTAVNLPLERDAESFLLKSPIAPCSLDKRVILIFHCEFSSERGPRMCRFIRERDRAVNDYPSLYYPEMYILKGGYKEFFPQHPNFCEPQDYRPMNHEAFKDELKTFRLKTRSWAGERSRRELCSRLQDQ
Assay Protocol: Inhibition of human recombinant fused MBP-CDC25B3
Experimental Endpoint: IC50 (µM)

# Structure String, Units Of Measure, Value Reported
data = [
    ("O=C1C(Br)=C(Br)C(=O)c2ncccc21", "µM", 5.3),
]

* * *

Study Target: M-phase inducer phosphatase 2 (Homo sapiens)
Sequence (P30305 whole entry): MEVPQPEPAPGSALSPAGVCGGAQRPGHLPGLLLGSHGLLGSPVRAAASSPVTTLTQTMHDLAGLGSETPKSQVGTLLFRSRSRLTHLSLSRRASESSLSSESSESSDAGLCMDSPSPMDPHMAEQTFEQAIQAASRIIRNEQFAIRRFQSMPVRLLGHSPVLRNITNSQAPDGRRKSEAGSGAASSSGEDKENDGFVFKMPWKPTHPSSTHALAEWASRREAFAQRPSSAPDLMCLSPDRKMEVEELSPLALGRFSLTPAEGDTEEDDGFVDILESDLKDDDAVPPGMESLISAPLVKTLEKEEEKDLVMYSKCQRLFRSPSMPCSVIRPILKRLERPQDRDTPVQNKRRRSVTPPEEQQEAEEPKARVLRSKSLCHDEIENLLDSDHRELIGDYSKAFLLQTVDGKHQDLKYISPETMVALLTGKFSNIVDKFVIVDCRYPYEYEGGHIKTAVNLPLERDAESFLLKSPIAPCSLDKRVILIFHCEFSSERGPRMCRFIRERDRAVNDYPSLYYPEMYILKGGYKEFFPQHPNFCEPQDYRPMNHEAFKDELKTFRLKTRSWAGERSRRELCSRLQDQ
Assay Protocol: Inhibition of human recombinant CDC25B
pIC50: −log10 of the molar value.

# Structure String, Study Target, pIC50
records = [
    ("O=C(CSC1=C(SCC(=O)OCc2ccccc2)C(=O)c2ccccc2C1=O)OCc1ccccc1", "M-phase inducer phosphatase 2 (Homo sapiens)", 5.47),
    ("C[C@@]12CCCc3coc(c31)C(=O)c1cc3c(cc12)C(=O)C1=C(NCCS1(=O)=O)C3=O", "M-phase inducer phosphatase 2 (Homo sapiens)", 7.15),
]

Data provenance: ChEMBL document CHEMBL1144221
